Biological target: T1, recombinant human c-Met (human, UniProt P08581 25-932, limits assumed)
T1 construct: Soluble recombinant protein: immobilised on the CM5 chip in Biacore, in solution in the equilibrium titration; The precursor is cleaved into disulfide-linked alpha and beta subunits; also called Hepatocyte Growth Factor Receptor
T1 sequence (P08581 25-932 limits assumed): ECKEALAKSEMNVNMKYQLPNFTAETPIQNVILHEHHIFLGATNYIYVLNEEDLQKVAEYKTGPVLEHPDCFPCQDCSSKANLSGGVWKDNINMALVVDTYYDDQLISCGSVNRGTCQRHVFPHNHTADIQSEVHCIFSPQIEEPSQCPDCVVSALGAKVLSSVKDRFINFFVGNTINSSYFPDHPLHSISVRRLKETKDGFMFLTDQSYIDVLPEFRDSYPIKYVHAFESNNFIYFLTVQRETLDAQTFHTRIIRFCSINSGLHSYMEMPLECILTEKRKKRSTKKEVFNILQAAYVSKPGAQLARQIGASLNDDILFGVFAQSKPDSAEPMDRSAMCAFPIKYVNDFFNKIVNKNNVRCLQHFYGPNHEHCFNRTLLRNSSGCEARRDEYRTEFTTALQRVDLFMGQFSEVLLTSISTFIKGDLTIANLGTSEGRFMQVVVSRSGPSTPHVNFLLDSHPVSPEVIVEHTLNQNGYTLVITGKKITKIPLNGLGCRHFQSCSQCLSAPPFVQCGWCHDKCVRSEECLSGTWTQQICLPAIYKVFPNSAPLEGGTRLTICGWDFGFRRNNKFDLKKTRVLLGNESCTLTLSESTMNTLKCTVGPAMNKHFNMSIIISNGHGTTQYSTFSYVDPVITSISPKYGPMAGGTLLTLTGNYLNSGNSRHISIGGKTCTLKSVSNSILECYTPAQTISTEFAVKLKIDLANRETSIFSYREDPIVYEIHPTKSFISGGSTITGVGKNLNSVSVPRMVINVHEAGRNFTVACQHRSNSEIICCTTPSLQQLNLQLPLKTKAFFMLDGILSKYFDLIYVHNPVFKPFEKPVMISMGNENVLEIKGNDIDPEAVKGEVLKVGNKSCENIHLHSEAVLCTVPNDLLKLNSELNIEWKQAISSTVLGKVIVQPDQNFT
Assay: SPR (BIAcore), Fab on immobilised human c-Met
Each record here notes measured Kd.
Give a bare numeral; the unit nM is implied.

Guide cases for Kd, answers given:
>  <Binder>
04687 (parental anti-cMet Fab antibody) (Fab, V domains shown, carries two C-terminal tags (FLAG and 6xHis)) VH: QVQLVQSGAEVKKPGSSVKVSCKASGGTFSSYAISWVRQAPGQGLEWMGGIDPFGTANYAQKFQGRVTITADESTSTAYMELSSLRSEDTAVYYCARVYQDVWGQGTLVTVSS VL: DIVMTQSPDSLAVSLGERATINCRSSQSILYGINNNFLGWYQQKPGQPPKLLIYWASTRESGVPDRFSGSGSGTDFTLTISSLQAEDVAVYYCQQYYNHPHTFGQGTKVEIKR

>  <Endpoint>
Kd

>  <Unit Abbreviation>
nM

>  <Reported>
0.8

$$$$
>  <Binder>
04537 (parental anti-cMet Fab antibody) (Fab, V domains shown, carries two C-terminal tags (FLAG and 6xHis)) VH: QVQLVQSGAEVKKPGESLKISCKGSGYSFSNYWIGWVRQMPGKGLEWMGFIFPDTSYTRYSPSFQGQVTISADKSISTAYLQWSSLKASDTAMYYCARVKLITDYWGQGTLVTVSS VL: DIELTQPPSVSVAPGQTARISCSGDSLRSYFVSWYQQKPGQAPVLVIYDDDDRPSGIPERFSGSNSGNTATLTISGTQAEDEADYYCASWDTLSDVEVFGGGTKLTVLG

>  <Endpoint>
Kd

>  <Unit Abbreviation>
nM

>  <Reported>
1.7

$$$$
>  <Binder>
04536 (parental anti-cMet Fab antibody) (Fab, V domains shown, carries two C-terminal tags (FLAG and 6xHis)) VH: QVQLVQSGAEVKKPGASVKVSCKASGYTFTGYYMNWVRQAPGQGLEWMGIINPWTGNTNYAQKFQGRVTMTRDTSISTAYMELSSLRSEDTAVYYCARDPGFFYYTPSDLWGQGTLVTVSS VL: DIELTQPPSVSVAPGQTARISCSGDSIGNKYVHWYQQKPGQAPVLVIYADSDRPSGIPERFSGSNSGNTATLTISGTQAEDEADYYCQAYDSSMLRVFGGGTKLTVLG

>  <Endpoint>
Kd

>  <Unit Abbreviation>
nM

>  <Reported>
1.4

$$$$

For the next question, use this binder.
query: Report measured Kd; entry is 04541 (parental anti-cMet Fab antibody) (Fab, V domains shown, carries two C-terminal tags (FLAG and 6xHis)) VH: QVQLQESGPGLVKPGETLSLTCTVSGGSISSSSYYWNWIRQAPGKGLEWIGEIYFGWTYYNPSLKGRVTISVDTSKNQFSLKLSSVTAEDTAVYYCARGYEFHGYTTFDYWGQGTLVTVSS VL: DIELTQPPSVSVAPGQTARISCSGDNIGSYYVYWYQQKPGQAPVLVIYDDNDRPSGIPERFSGSNSGNTATLTISGTQAEDEADYYCQSYDFPSIVFGGGTKLTVLG
result: 2.6
